System: SK-OV-3 ovarian
Test: NCI-60 one-dose screen, 48 h (100 = growth as untreated, 0 = no growth, -100 = all killed)
Details: 10 µM unless noted
Compounds without any hit were thinned out: in the full panel of roughly 83,000, 20% have a hit.
readout_name: growth (%)

compound	test_value
CCCCOc1ccc(NC(=O)n2nc(NC(C)=O)c3cc(NC(C)=O)ccc32)cc1	117
C=CC[N+]1(CC)CCN=C1CCCCCCCCCCCCCCCCC (stereo not drawn)	-78.9
CSc1nc(NCCCNc2ccnc3cc(Cl)ccc23)cc(-c2ccccc2)n1	82.3
COc1ccc2nc3cc(Cl)ccc3c(N3CCN(c4ccnc(N5CCOCC5)n4)CC3)c2c1	85.5
COC1C/C(=N\O)C2OC(c3ccccc3)OCC2O1 (stereo not drawn)	100
CC(=O)C1=C(O)C=C2Oc3c(C(=O)/C=C/c4ccccc4)c(O)c(C)c(O)c3[C@]2(C)C1=O	40.9
O=C1Nc2ccccc2/C1=C/C(=N/c1nnc(-c2ccc(Cl)cc2)s1)c1ccccc1	75.9
O=c1c2cccc3c(Nc4c(F)cccc4F)ccc(c32)c2nc3ccccc3n12	89.1
O=C1/C(=C/c2ccc(Cl)c(Cl)c2)CN(C(=O)CCN2CCC(=NO)CC2)C/C1=C\c1ccc(Cl)c(Cl)c1	-55.7
O=C1c2cc3c(cc2-c2c1c1cc(Cl)c(Cl)cc1c(=O)n2C[C@H](O)CO)OCO3	-54
CC1=NNC(=O)C1C (stereo not drawn)	101
COc1ccc(OCC(=O)Nc2ccc(-c3nc4ccccc4s3)cc2C)cc1	99.5
Nc1nc(-c2ccc(F)cc2)cc(-c2cnn(-c3ccccc3)n2)n1	102
O=C(O)c1cn(C2CC2)c2cc(N3CCN(Cc4nc5c(cnn5-c5ccc([N+](=O)[O-])cc5)c(=O)[nH]4)CC3)c(F)cc2c1=O	105
Cc1ccc2c(c1)O/C(=C\c1cccc(OCC(=O)c3ccccc3)c1)C2=O	108
COc1cc(OC)c(/C=C/S(=O)(=O)Cc2ccc(OC)c(N)n2)c(OC)c1	5.23
COc1ccc2nc3cc(Cl)ccc3c(NCCNCC(O)CO)c2c1 (stereo not drawn)	32.4
Cc1cc(N/N=C/c2nc(-c3ccc(Cl)cc3)oc2C)c2cc(Cl)ccc2n1	100
CCOC(=O)c1c2c(n3ccc(NC(=O)CCN4CCCCC4)cc13)C(=O)c1ncccc1C2=O	26.2
C=C(C[n+]1ccccc1)[C@@H]1CC[C@]2(C(=O)OC)CC[C@]3(C)[C@H](CC[C@@H]4[C@@]5(C)CC[C@H](O)C(C)(C)[C@@H]5CC[C@]43C)[C@@H]12	95
CN1CCN(Cc2ccc(NC(=O)c3cncc(C#Cc4cnc(N)c5cccnc45)c3)cc2C(F)(F)F)CC1	-10.9
CCOC(=O)Cc1cnn(C)c1NC(=O)c1ccc(Cl)cc1NC(C)=O	102
COc1cc(OC)c(/C=C/c2cc[n+](C)c3ccccc23)c(OC)c1	-10.8
COc1ccc(C/C(C)=C(\c2ccc(Cl)cc2)c2ccc(OCCN3CCCCCC3)cc2)cc1	103
Oc1ccc(Nc2nccc(-c3ccc4ccccc4c3)n2)cc1	57.4
Cc1csc2ccc(Cl)cc12	96.5
CCCCN(CC)CCCCCCCCCCN1CCCc2cc(OC)ccc21	88.9
C[C@@]1(N2C(=O)OC[C@@H]2c2ccccc2)C(=O)N([C@H](CC(=O)N2CCC(N3CCCCC3)CC2)C(=O)NCc2cccc(C(F)(F)F)c2)[C@@H]1/C=C/c1ccccc1	78.9
O=C(O)c1ccccc1Nc1cccc(S(F)(F)(F)(F)F)c1	87.4
O=C(/C=C/c1ccc(Cl)cc1)c1ccc(O)c(CN2CCN(c3cc4c(cc3F)c(=O)c(C(=O)O)cn4C3CC3)CC2)c1	73.8
CCCNc1nc(SC)nc(-c2cccc(N)c2)c1C#N	93.7
CN1C2CCC1/C(=C\c1ccc(Cl)cc1)C1=C2[C@@H](c2ccc(Cl)cc2)C(C#N)=C(N)O1 (stereo partly drawn)	94.8
C[C@@H]1CC[C@@H]2[C@@H]1[C@H](OC(=O)/C=C/c1ccccc1)[C@]1(C3CCCCC3)C[C@@H](OC(=O)CO)[C@@]2(C)O1	81.4
CNCCCn1c2c(c3ccc([N+](=O)[O-])cc3c1=O)C(=O)c1cc(OC)cnc1-2	-15.8
COc1ccc(C2c3ccc4ccccc4c3Oc3ncnc(N)c32)cc1 (stereo not drawn)	62.1
CCN(CC)CCCNc1cccc2c(SCc3ccccc3)ccnc12	97.8
Cn1cc(-c2csc(-c3cn(C)c4ncccc34)n2)c2ccccc21	36.6
COC(=O)[C@H](C(C)C)n1c(=O)c2cc(OC)c(OC)cc2c2cnc3[nH]ccc3c21	26.5
